molecular target: human PDL1 protein (Octet assay) (human, UniProt Q9NZQ7 19-238); assay: Octet; antibody on sensor, PDL1 protein in solution
Sequence (Q9NZQ7 19-238 limits assumed): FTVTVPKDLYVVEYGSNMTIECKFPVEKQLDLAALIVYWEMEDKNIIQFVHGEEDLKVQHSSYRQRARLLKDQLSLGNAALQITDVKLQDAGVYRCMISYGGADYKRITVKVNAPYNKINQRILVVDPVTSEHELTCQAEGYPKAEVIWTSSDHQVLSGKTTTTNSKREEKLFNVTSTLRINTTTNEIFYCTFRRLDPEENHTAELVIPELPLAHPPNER
Kindly apply the following: rule met if kon is less than 900000 M⁻¹ s⁻¹, rule not met in every other case.

1. Anti-PDL1 antibody 570h3 (antibody, V domains shown, Humanized heavy chain antibody; also called Anti-PDL1, 570h3) VH: EVQLVESGGGLVQPGGSLRLSCAASGFTFSSHAMSWVRQAPGKGLEWVSDIDTSGTTTDYADSVKGRFTISRDNSKNTLYLQMNSLRAEDTAVYYCAKGPREATDIRSWGQGTTVTVSS; rule met
2. Anti-PDL1 antibody C71 (antibody, V domains shown, Heavy chain antibody (single domain variable region); also called Anti-PDL1, C71) VH: EVQVVESGGGLVQSGGSLKLSCAGSGFTESAGFMVWHRQVPGKERELVALIATPSGSTNYADSVKGRFTISRDNGKNTVYLQMNSLKPEDTAVYYCNIRGYWGQGTLVTVSS; rule not met
3. Anti-PDL1 antibody C570 (antibody, V domains shown, Heavy chain antibody; also called Anti-PDL1, C570) VH: EVQLVESGGGLVQAGGSLRLSCAASGFTFSSHAMSWVRQAPGKGLEWVSDIDTSGTTTDYADSVKGRFTISRDNAKNTLYLQMNSLKPEDTAVYYCAKGPREATDIRSWGQGTQVTVSS; rule met
4. Anti-PDL1/SIRPα bispecific antibody ES019-025 (bispecific antibody, not shown: CL; linker; CH1-Fc) light: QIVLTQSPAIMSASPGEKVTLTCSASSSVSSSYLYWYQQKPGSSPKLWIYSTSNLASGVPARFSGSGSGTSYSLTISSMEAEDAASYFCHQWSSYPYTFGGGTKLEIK heavy (part 1 of 2): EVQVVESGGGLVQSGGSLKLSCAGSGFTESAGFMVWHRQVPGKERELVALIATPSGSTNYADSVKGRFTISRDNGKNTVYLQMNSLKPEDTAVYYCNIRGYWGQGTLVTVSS heavy (part 2 of 2): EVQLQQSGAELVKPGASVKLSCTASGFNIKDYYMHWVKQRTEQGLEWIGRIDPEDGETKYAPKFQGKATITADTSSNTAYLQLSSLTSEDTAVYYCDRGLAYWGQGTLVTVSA; rule not met

Next, consider the following binder.
(Q) Is it true that kon reported for Anti-PDL1/SIRPα bispecific antibody ES019-029 (bispecific antibody) chain 1: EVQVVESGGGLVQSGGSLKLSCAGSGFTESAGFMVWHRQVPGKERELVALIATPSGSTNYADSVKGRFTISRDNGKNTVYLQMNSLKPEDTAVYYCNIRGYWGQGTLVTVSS chain 2: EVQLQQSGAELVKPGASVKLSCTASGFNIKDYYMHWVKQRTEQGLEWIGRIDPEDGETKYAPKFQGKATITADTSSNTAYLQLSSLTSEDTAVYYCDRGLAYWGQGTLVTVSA chain 3: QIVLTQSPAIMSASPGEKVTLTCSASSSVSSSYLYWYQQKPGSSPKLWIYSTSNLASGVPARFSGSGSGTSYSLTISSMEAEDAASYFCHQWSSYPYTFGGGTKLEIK is less than 900000 M⁻¹ s⁻¹?
(A) rule not met
